Data origin: patent US20240376091A1

- STUDY_SYSTEM: AR (Homo sapiens, UniProt P10275, T878A)
- Construct: into the androgen-dependent PCa cells (LNCaP); endogenous in cells; host or cells: LNCaP-ARR2PB-eGFP
- Sequence (P10275 whole entry T878A): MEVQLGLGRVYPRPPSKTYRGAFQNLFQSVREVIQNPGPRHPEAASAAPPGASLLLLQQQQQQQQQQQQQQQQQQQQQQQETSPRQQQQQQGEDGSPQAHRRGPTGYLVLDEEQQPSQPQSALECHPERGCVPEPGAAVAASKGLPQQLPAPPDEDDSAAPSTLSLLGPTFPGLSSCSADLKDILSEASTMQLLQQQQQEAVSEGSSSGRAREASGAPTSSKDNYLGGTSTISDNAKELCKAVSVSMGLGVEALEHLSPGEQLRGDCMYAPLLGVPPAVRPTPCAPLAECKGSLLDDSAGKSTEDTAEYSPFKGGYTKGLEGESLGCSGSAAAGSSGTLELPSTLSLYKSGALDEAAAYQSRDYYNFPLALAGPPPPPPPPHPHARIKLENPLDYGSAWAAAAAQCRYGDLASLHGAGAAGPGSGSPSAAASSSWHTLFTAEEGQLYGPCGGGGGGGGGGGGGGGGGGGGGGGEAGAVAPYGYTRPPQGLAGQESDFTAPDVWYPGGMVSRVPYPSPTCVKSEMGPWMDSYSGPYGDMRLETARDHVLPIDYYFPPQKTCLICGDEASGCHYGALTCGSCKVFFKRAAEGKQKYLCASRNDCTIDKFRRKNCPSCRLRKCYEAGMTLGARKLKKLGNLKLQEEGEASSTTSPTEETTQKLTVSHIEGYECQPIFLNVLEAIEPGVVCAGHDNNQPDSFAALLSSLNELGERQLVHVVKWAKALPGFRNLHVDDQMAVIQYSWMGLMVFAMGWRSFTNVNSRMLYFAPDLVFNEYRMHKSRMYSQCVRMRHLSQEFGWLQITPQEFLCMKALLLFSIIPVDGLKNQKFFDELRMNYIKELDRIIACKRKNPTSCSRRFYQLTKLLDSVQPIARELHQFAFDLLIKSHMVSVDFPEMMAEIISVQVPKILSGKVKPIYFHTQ
- PROCEDURE_DETAILS: AR transcriptional activity, LNCaP-ARR2PB-eGFP reporter cells
- Format: cell-based
- CONDITIONS: read-out: IC50 AR transcriptional activities
REPORTED_PROPERTY: pIC50
Kindly note that pIC50 refers to -log10 of the concentration in mol/L and answer with the value alone.

* O=C(Nc1nc(CCl)ns1)c1cc(-c2cccc(C(F)(F)F)c2)oc1C(F)(F)F [Compound E-32] | 5.88
* O=C(Nc1nc(CN2CCCCC2)ns1)c1coc(-c2cccc(OC(F)F)c2)c1 [Compound B-56] | 4.55
* CC(O)(Cc1nsc(NC(=O)c2cc(-c3cccc(C#N)c3)co2)n1)C(F)(F)F (stereo not drawn) [Compound G-13] | 4.66
* CC(=O)Cc1nsc(NC(=O)c2cc(-c3ccc(Cl)c(Cl)c3)oc2C)n1 [Compound A-10] | 5.91
* CC(=O)Cc1nsc(NC(=O)c2cc(-c3cccc4ccccc34)oc2C)n1 [Compound A-11] | 5.37

Problem: Give recorded pIC50 with AR (Homo sapiens, UniProt P10275, T878A) for the following molecule: O=C(Nc1nc(CN2CCCC2)ns1)c1cc(-c2cccc(OC(F)(F)F)c2)oc1C(F)(F)F [Compound E-40]
Result: 5.53

Problem: Enter reported pIC50 observed with AR (Homo sapiens, UniProt P10275, T878A) for Cc1sc(-c2cccc(C(F)(F)F)c2)cc1C(=O)Nc1nc(CC(C)(O)C(F)(F)F)ns1 (stereo not drawn) [Compound C-25]
Result: 5.60

Problem: Request - read-out pIC50 | tested on AR (Homo sapiens, UniProt P10275, T878A) | molecule CC(=O)Cc1nsc(NC(=O)c2cc(-c3cccc(OC(F)(F)F)c3)c(C)o2)n1 [Compound F-4]
Result: 4.45

Problem: Please state recorded pIC50 (tested on AR (Homo sapiens, UniProt P10275, T878A)) of CCN(CC)Cc1nsc(NC(=O)c2cc(-c3cccc(OC)c3)sc2C)n1 [Compound C-50]
Result: 4.90

Problem: Record CC(=O)Cc1nsc(NC(=O)c2cc(-c3ccc4ccccc4c3)oc2C)n1 [Compound A-12] : what is its pIC50 with AR (Homo sapiens, UniProt P10275, T878A)?
Result: 5.50

Problem: Any idea what pIC50 came out for [2H]c1c(-c2cccc(OC(F)F)c2)oc(C)c1C(=O)Nc1nc(CC(C)=O)ns1 [Compound A-37] on AR (Homo sapiens, UniProt P10275, T878A)?
Result: 7.52

====

Attribute: IC50
- STUDY_SYSTEM: AR (Homo sapiens, UniProt P10275, T878A)
- Construct: into the androgen-dependent PCa cells (LNCaP); endogenous in cells; host or cells: LNCaP-ARR2PB-eGFP
- PROCEDURE_DETAILS: AR transcriptional activity, LNCaP-ARR2PB-eGFP reporter cells
- Type: cell-based
- CONDITIONS: read-out: IC50 AR transcriptional activities
Please respond with the number in µM and leave the unit unwritten.

- CCN(CC)C(C)Cc1nsc(NC(=O)c2cc(-c3cccc(OC(F)F)c3)oc2C)n1 (stereo not shown): 0.04
- Cc1oc(C(=O)Nc2nc(CC(C)N3CCOCC3)ns2)cc1-c1cccc(OC(F)(F)F)c1 (stereo not shown): 23.5
- CC(=O)Cc1nsc(NC(=O)c2coc(-c3cccc(OC(F)(F)F)c3)c2)n1: 32.5

// below: IC50 requested for another compound
Problem: Looking for the measured IC50 of Cc1oc(-c2cccc(C(F)(F)F)c2)cc1C(=O)Nc1nc(CC(C)N)ns1 (stereo not shown) , can you help?
Result: 1.39
